# Study System: T1, HPV-16 L1 protein (Cat. No. ab119880, Abcam), recombinantly expressed (human papillomavirus type 16), P03101
# T1 chain: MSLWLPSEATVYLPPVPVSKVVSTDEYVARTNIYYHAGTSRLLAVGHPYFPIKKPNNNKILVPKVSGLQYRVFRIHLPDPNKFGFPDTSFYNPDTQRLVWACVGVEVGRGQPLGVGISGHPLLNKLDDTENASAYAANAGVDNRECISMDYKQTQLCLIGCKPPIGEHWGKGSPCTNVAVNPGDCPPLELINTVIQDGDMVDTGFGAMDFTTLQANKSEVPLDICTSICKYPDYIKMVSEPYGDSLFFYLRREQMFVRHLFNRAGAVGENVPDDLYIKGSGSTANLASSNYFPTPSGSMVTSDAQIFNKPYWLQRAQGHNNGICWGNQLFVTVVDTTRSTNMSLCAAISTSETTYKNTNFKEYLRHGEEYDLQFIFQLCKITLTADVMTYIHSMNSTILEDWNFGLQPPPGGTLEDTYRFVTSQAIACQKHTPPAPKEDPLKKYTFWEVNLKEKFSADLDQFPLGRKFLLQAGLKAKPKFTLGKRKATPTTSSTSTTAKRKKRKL
# Method: SPR, Biacore 3000, HPV-16 L1 amine-coupled on chip, polypeptide as analyte
Measurement Label: Kd (nM)
Field: numeric (nM). Do not append units.

Query (binder): MGRFKRFRKKFKKLFKKLS (modifications not checked) [the polypeptide of the present invention (antimicrobial polypeptide, SEQ ID NO: 1)] ; field requested: Kd
0.782
